# Tested on: Malme-3M
# PROCEDURE_TEXT: NCI tumour cell line growth inhibition, 48 h
Activity calls are given as the source filed them. Cut-off read from the data, not from the text of the source: active = GI50 up to about 1.1 µM and inactive = higher.
Items are presented alongside their recorded GI50.

>>> obs_value("COC(=O)[C@H]1[C@H](OC(=O)[C@@H](OC)c2ccccc2)ON2CC[C@@H](OC(=O)c3ccccc3)[C@H]12")
"> 100 µM (inactive)"
>>> obs_value("Cc1ccccc1/C=N/C12CC3CC(CC(C3)C1)C2")
"> 100 µM (inactive)"
>>> obs_value("C=C1c2nc3ccccc3n2C=C(c2ccc(Cl)cc2)N1c1ccc(OCCN2CCOCC2)cc1")
"52 µM (inactive)"
>>> obs_value("NS(=O)(=O)c1ccc(NC(=O)Nc2ccccc2F)cc1")
"> 100 µM (inactive)"
>>> obs_value("CCn1c(O)c(C(=O)Nc2cccs2)c(=O)n(CC)c1=S")
"19.9 µM (inactive)"

Kindly note the recorded GI50 for O=NN(CCCl)C(=O)Nc1ccc(Cl)c(Cl)c1 , which is > 100 µM (inactive)

Kindly note the recorded GI50 for CSc1cnc2ccccc2c1Sc1c[nH]c2ccccc2c1=O , which is 6.55 µM (inactive)

Kindly note the recorded GI50 for O=C(O)c1cccc(OCCO)c1 , which is > 100 µM (inactive)

Kindly note the recorded GI50 for CCC(CO)Nc1nc2c(c(=O)n(C)c(=O)n2C)n1CCO (centres undefined) , which is > 100 µM (inactive)

Kindly note the recorded GI50 for O=c1cc(N2CCN(c3cc(=O)n4ccccc4n3)CC2)oc2ccccc12 , which is > 100 µM (inactive)

Kindly note the recorded GI50 for COc1ccccc1/C=C/c1c(N)ncnc1Nc1cccc(Cl)c1 , which is 30.5 µM (inactive)

Kindly note the recorded GI50 for O=C(C=P(c1ccccc1)(c1ccccc1)c1ccccc1)C12CC3CC(CC(C3)C1)C2 , which is 19.2 µM (inactive)
